target: UniProt P18337
Sequence (P18337 whole entry): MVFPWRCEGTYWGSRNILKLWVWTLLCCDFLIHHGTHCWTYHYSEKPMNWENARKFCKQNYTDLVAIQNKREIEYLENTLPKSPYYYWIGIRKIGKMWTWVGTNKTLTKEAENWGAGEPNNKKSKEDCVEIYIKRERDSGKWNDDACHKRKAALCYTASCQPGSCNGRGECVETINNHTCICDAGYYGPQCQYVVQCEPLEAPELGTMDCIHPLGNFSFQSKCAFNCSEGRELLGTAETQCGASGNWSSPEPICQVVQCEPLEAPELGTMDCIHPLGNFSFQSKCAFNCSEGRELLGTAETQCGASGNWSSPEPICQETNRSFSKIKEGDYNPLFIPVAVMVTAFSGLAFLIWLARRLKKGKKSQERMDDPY
test description: Blocking activity using seletin-IgG chimeras in a Selectin L competitive binding assay.
Collected pIC50 values appear next to each entry.
In plain terms, pIC50 is the concentration in mol/L turned into minus its base-10 logarithm.

CCCCCCCCCCCCCCC(CCCCCCCCCCCCCC)C(=O)N[C@H](CO[C@@H]1O[C@@H](C)[C@@H](O)[C@H](O)[C@@H]1O)C(=O)N[C@@H](CCC(=O)O)C(=O)NC
5.22

Form field, pIC50 with UniProt P18337, item `CCCCCCCCCCCCCCC(CCCCCCCCCCCCCC)CO[C@@H]1O[C@H](CO)[C@@H](O[C@@H]2O[C@H](CO)[C@H](O)[C@H](OS(=O)(=O)O)[C@H]2O)[C@H](O[C@@H]2O[C@@H](C)[C@@H](O)[C@@H](O)[C@@H]2O)[C@H]1O` : 4.52

Form field pIC50 for item `CCCCCCCCCCCCCCC(CCCCCCCCCCCCCC)C(=O)N[C@@H](CO[C@@H]1O[C@@H](C)[C@@H](O)[C@H](O)[C@@H]1O)C(=O)N[C@H](CCC(=O)O)C(=O)NC` on UniProt P18337: 5.03

Record `CCCCCCCCCCCCCCC(CCCCCCCCCCCCCC)C(=O)N[C@@H](CO[C@@H]1O[C@@H](C)[C@@H](O)[C@H](O)[C@@H]1O)C(=O)N[C@@H](CCC(=O)O)C(=O)NC` ; system UniProt P18337; pIC50 = 4.74
